System: EKVX NSCLC
Assay: NCI-60 one-dose screen, 48 h (100 = growth as untreated, 0 = no growth, -100 = all killed)
Conditions: 10 µM unless noted
This is part of a sample that, as a whole, favours compounds with a hit. Of some 83,000 tested, about 20% had one in any assay.
# growth listing for each entry below
Please give a number only; it is taken to be in %.

Recorded results for 3 molecules are shown here.
# Molecule, Experimental system, growth (%)
data = [
    ("CC1=Nc2cnc(Nc3ccc(OCCN4CCCCC4)cc3)nc2Nc2ccccc21", "EKVX NSCLC", 78.3),
    ("CCSc1nc(NC)c2cc(-c3ccc(C(F)(F)F)cc3)ccc2n1", "EKVX NSCLC", 96.6),
    ("CC(C)n1cnc2c(=S)nc[nH]c21", "EKVX NSCLC", 98),
]

[ask] Give reported growth value for CCOC(=O)C(=Cc1cccc(Cl)c1)C(=O)OCC
[reply] 78.7

[ask] Return value of growth for input Cn1ccnc1C(=O)C(=O)Nc1ccc(CC(=O)Nc2ccccc2)cc1 , no commentary.
[reply] 102

[ask] Identify measured growth corresponding to COc1cc(CNC(=O)CCCC/C=C/C(C)C)ccc1OCc1nnc(Nc2ccc([N+](=O)[O-])cc2)o1
[reply] 74.7

[ask] Specify growth for COC(C(=O)[C@@H](O)[C@@H](C)O)[C@@H]1Cc2cc3cc(O[C@H]4C[C@@H](O[C@H]5C[C@@H](O)[C@H](O)C(C)O5)[C@H](O)C(C)O4)c(C)c(O)c3c(O)c2C(=O)[C@H]1O[C@H]1C[C@@H](O[C@H]2C[C@@H](O[C@H]3C[C@@H](O)[C@H](OC)C(C)O3)[C@@H](O)C(C)O2)[C@H](O)C(C)O1 (stereo not given in full) and stop.
[reply] 12.3

[ask] Retrieve growth measured for COP(=O)(OC)C(C)(C)CC(=O)CC(C#N)(C#N)C(C#N)C#N and print it.
[reply] 99.4

All figures here come from PubChem BioAssay (NCI).
